B1: Gamma-crystallin S, residues 96 to 176; numbered along this chain, P22914 (parent)
chain: IQIFEKGDFSGQMYETTEDCPSIMEQFHMREIHSCKVLEGVWIFYELPNYRGRQYLLDKKEYRKPIDWGAASPAVQSFRRI

variants of: B1; experiment: abundance fitness (aPCA) (normalised: wild type 0, dead -1); higher = more abundant; growth selection in yeast, the domain comes from the species named; details: Homo sapiens
Answer each item with its documented abundance fitness.
One number for each entry.

Observe how each entry below is paired with its result.
>  <Seq Text>
IQIFEKGDFSGQMYETTEDCPSIMEQFHMREIHSCKVLEGVWIFYELPNYRGRQYLLDKKEYRKPILWGAASPAVQSFRRI [D67L]

>  <abundance fitness>
-0.321

$$$$
>  <Seq Text>
LQIFEKGDFSGQMYETTEDCPSIMEQFHMREIHSCKVLEGVWIFYELPNYRGRQYLLDKKEYRKPIDWGAASPAVQSFRRI [I1L]

>  <abundance fitness>
-0.154

$$$$
>  <Seq Text>
IQRFEKGDFSGQMYETTEDCPSIMEQFHMREIHSCKVLEGVWIFYELPNYRGRQYLLDKKEYRKPIDWGAASPAVQSFRRI [I3R]

>  <abundance fitness>
-0.703

$$$$
>  <Seq Text>
IQIFEKGDFSGQMYETTEDCPSIMEQFHMREIHSCKVLEGVWIFYELPNYRGSQYLLDKKEYRKPIDWGAASPAVQSFRRI [R53S]

>  <abundance fitness>
-0.084

$$$$
>  <Seq Text>
IQIFELGDFSGQMYETTEDCPSIMEQFHMREIHSCKVLEGVWIFYELPNYRGRQYLLDKKEYRKPIDWGAASPAVQSFRRI [K6L]

>  <abundance fitness>
-0.058

$$$$

Return reported abundance fitness values for all items listed beneath this line.
1. IQIFEKGDFSGQSYETTEDCPSIMEQFHMREIHSCKVLEGVWIFYELPNYRGRQYLLDKKEYRKPIDWGAASPAVQSFRRI [M13S]
2. IQIFEKGDFSGQMYETTEDCPSIMEQFHMREIHSCKVLEGVWIFYELPNPRGRQYLLDKKEYRKPIDWGAASPAVQSFRRI [Y50P]
3. IQIFEKGDFSGQMYETTEDCPSIMEQFHMREIHSCKVLEGVWIFYELPNYRGRQYLLDGKEYRKPIDWGAASPAVQSFRRI [K59G]
4. IQIFEKGDFSGQMYETTEDCPSIMEQFHMREIHSCKVLEGVWIFYELPNYRGRQYLLDKKEYRKPIDYGAASPAVQSFRRI [W68Y]
5. IQIFEKGDFSGQMYETTEDCPSIMEQFHMREIHSCKVLEGVWIFYELPNYRGRQYLLDKKEYRVPIDWGAASPAVQSFRRI [K64V]
6. IQIFEKGDFSGQMYETTEDCPSIMEQFHMREIHSCKVLEGVWIFYELPNYRGRQYLLDKKEYRKPIDWGAASPAVQSFMRI [R79M]
7. IQIFEKGDFSGQMYETTEDCPSIMEQFHCREIHSCKVLEGVWIFYELPNYRGRQYLLDKKEYRKPIDWGAASPAVQSFRRI [M29C]
8. IQIFEKGDFSGQMYETTEDCPSIMEQFHMREPHSCKVLEGVWIFYELPNYRGRQYLLDKKEYRKPIDWGAASPAVQSFRRI [I32P]

[-0.023, -1.14, -0.133, -0.425, 0.002, -0.346, 0.132, 0.051]
